Measured inhibition accompanies every entry in the list below.
Target: Phosphatidylinositol 4,5-bisphosphate 3-kinase catalytic subunit delta isoform (Homo sapiens)
Assay: Inhibition of PI3K-delta (unknown origin) using PIP2 as substrate at 10 nM incubated for 1 hr by Kinase-Glo luminescent kinase assay

[
  {
    "compoundStructure": "COc1ncc(-c2ccc3nccc(C#CCN(C)C)c3c2)cc1NS(=O)(=O)c1ccc(F)cc1F",
    "endpointResult": "6.1%"
  },
  {
    "compoundStructure": "COc1ncc(-c2ccc3nccc(C#CCN(C4CCCCC4)C4CCCCC4)c3c2)cc1NS(=O)(=O)c1ccc(F)cc1F",
    "endpointResult": "3.2%"
  }
]

From here, focus on the item given below.
Briefly, inhibition measured for `COc1ncc(-c2ccc3nccc(C#CCN4CCOCC4)c3c2)cc1NS(=O)(=O)c1ccc(F)cc1F` : 35%

* * *

Each record here notes measured inhibition.
Biological target: Phosphatidylinositol 4,5-bisphosphate 3-kinase catalytic subunit delta isoform (Homo sapiens)
Assay: Inhibition of PI3K-delta (unknown origin) using PIP2 as substrate at 10 nM incubated for 1 hr by Kinase-Glo luminescent kinase assay
Reply numerically in %, unit not repeated.

Lab note: measured inhibition of `COc1ncc(-c2ccc3nccc(C#CCN(C)CCO)c3c2)cc1NS(=O)(=O)c1ccc(F)cc1F` was 16

Field inhibition (entry `CCN(CC)CC#Cc1ccnc2ccc(-c3cnc(OC)c(NS(=O)(=O)c4ccc(F)cc4F)c3)cc12` ) reads 1.2

* * *

Molecular target: Serine/threonine-protein kinase mTOR (Homo sapiens, UniProt P42345)
Test: Inhibition of mTOR kinase (unknown origin) assessed as suppression of ULight-4E-BP1 substrate phosphorylation incubated for 1 hr by lance ultra assay
measuredMetric: IC50 (nM)
Numbers only; they are read as nM.

The recorded IC50 for entry `COc1ncc(-c2ccc3nccc(C#CCN4CCN(S(C)(=O)=O)CC4)c3c2)cc1NS(=O)(=O)c1ccc(F)cc1F` equals 5.4

* * *

Molecular target: Phosphatidylinositol 4,5-bisphosphate 3-kinase catalytic subunit beta isoform (Homo sapiens, UniProt P42338)
Sequence (P42338 whole entry, looked up, canonical isoform): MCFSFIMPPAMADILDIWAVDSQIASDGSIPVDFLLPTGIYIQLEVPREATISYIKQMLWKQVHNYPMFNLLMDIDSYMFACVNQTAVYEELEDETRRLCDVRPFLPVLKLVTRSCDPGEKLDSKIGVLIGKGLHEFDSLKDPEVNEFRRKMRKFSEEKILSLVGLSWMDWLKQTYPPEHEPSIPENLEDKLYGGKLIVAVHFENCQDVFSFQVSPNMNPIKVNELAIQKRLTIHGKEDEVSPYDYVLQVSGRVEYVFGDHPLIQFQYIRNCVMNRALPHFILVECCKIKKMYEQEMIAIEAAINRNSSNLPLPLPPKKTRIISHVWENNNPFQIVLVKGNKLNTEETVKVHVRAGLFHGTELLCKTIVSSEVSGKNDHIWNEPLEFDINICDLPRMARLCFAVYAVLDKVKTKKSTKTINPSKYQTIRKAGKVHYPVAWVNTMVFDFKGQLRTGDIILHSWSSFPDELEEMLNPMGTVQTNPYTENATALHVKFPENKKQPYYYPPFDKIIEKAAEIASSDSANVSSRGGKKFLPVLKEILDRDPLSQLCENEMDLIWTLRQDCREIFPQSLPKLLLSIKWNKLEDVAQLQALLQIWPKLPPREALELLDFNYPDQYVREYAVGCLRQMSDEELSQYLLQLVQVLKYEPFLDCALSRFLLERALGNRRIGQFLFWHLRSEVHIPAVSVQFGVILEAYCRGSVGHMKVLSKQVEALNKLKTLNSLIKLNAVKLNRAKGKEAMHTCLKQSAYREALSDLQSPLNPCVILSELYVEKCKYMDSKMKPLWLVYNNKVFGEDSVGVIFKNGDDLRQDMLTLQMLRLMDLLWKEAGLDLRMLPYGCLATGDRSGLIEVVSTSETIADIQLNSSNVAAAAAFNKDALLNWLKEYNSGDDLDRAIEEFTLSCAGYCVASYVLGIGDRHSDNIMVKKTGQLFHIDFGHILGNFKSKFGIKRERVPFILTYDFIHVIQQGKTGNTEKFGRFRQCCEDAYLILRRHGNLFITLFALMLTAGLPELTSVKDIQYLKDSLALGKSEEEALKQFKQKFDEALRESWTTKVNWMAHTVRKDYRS
Assay: Inhibition of PI3K-beta (unknown origin) at 10 nM after 40 mins by ADP-Glo luminescent kinase assay
Outcome: Condition met for inhibition of at least 20%; Condition not met for anything lower.

[
  {
    "compound": "COc1ncc(-c2ccc3nccc(C#CCN(C)C)c3c2)cc1NS(=O)(=O)c1ccc(F)cc1F",
    "classification": "Condition met"
  }
]

q: # check: inhibition of `COc1ncc(-c2ccc3nccc(C#CCN(C)CCO)c3c2)cc1NS(=O)(=O)c1ccc(F)cc1F` is greater than or equal to 20%
a: Condition met

q: API: above_or_equal(metric=inhibition, cutoff=20%) for item `COc1ncc(-c2ccc3nccc(C#CCN4CCOCC4)c3c2)cc1NS(=O)(=O)c1ccc(F)cc1F`
a: Condition met

q: Check if inhibition >= 20% (inclusive). Item: COc1ncc(-c2ccc3nccc(C#CCN4CCCCC4C)c3c2)cc1NS(=O)(=O)c1ccc(F)cc1F (stereo not drawn)
a: Condition not met

q: I'd appreciate it if you could say whether `CCN(CC)CC#Cc1ccnc2ccc(-c3cnc(OC)c(NS(=O)(=O)c4ccc(F)cc4F)c3)cc12` has inhibition at least equal to 20%.
a: Condition met

q: Tell me whether inhibition is at least 20% here: `CCOC(=O)N1CCN(CC#Cc2ccnc3ccc(-c4cnc(OC)c(NS(=O)(=O)c5ccc(F)cc5F)c4)cc23)CC1`
a: Condition met

q: Dear colleague, could you confirm whether `COc1ncc(-c2ccc3nccc(C#CCN(C)C)c3c2)cc1NS(=O)(=O)c1ccc(F)cc1` has inhibition at or above 20%?
a: Condition not met

q: Hello, I need to know if `COc1ncc(-c2ccc3nccc(C#CCN4CCC(C)CC4)c3c2)cc1NS(=O)(=O)c1ccc(F)cc1F` has measured inhibition not below 20%. Thanks!
a: Condition not met
